# assayProtocol: Toxicity in fertilized chicken eggs
# conditionContext: in vivo, other: inoculated into the allantoic cavity
Listed below: CC50 at 5 days values for each entry.

[
  {
    "smilesRecord": "CCOC(=O)C1=C[C@@H](OC(CC)CC)[C@H](NC(C)=O)[C@@H](N)C1",
    "reportedMeasurement": "> 150 µM"
  }
]

Now examine the next entry.
COc1cc(-c2oc3cc(O)cc(O)c3c(=O)c2O)ccc1O yielded CC50 at 5 days of > 420 µM

====

# experimentalTarget: NA of A/Tern/South Africa/1/61 (H5N3) (Influenza A virus, UniProt Q6XV52)
# Sequence (Q6XV52 whole entry, looked up): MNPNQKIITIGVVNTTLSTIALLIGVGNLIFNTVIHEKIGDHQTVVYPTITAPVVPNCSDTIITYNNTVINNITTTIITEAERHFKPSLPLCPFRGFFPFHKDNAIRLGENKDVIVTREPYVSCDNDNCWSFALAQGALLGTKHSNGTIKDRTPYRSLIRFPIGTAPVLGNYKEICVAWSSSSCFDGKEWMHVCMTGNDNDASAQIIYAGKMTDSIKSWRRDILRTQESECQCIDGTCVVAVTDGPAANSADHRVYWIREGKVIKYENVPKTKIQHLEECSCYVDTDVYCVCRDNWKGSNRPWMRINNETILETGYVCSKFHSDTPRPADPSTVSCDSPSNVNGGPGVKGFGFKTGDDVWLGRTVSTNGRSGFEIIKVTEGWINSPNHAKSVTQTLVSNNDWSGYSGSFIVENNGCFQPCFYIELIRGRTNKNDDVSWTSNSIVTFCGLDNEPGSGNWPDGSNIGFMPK
# assayProtocol: biochemical
Listed below: IC50 values for each entry.
Write the numeric value and follow it with the unit.

[
  {
    "smilesRecord": "COc1cc(-c2oc3cc(O)cc(O)c3c(=O)c2O)ccc1O",
    "reportedMeasurement": "370 µM"
  }
]

Now examine the next entry.
CCOC(=O)C1=C[C@@H](OC(CC)CC)[C@H](NC(C)=O)[C@@H](N)C1 yielded IC50 of 20.3 µM

====

# System: A/Tern/South Africa/1/61(H5N3)
# assayProtocol: animal or person
# Type: in vivo, influenza A virus
# conditionContext: Influenza A virus, H5N3
observedProperty: EC50

[
  {
    "smilesRecord": "COc1cc(-c2oc3cc(O)cc(O)c3c(=O)c2O)ccc1O",
    "experimentalTarget": "A/Tern/South Africa/1/61(H5N3)",
    "EC50": "35.4 µM"
  }
]

Now examine the next entry.
CCOC(=O)C1=C[C@@H](OC(CC)CC)[C@H](NC(C)=O)[C@@H](N)C1 yielded EC50 of 1.65 µM

====

# experimentalTarget: NA of A/chicken/FPV/Rostock/1934 (H7N1) (Influenza A virus)
# Sequence (Q64968 whole entry, looked up): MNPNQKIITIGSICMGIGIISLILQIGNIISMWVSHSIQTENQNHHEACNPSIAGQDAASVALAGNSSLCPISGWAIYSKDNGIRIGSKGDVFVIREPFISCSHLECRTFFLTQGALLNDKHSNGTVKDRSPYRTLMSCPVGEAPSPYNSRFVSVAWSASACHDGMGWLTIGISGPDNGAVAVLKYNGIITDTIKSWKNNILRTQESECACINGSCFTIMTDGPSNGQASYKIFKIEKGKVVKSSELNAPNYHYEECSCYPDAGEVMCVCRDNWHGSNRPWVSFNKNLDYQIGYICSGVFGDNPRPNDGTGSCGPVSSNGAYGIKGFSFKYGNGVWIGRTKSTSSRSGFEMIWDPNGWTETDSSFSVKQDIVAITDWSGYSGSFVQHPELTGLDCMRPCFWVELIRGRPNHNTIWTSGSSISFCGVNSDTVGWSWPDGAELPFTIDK
# conditionContext: read-out: Neuraminidase Inhibition Concentration 50 (NIC50)
observedProperty: IC50 (µM)
Entry rule: numbers only, all in µM.

[
  {
    "smilesRecord": "COc1cc(-c2oc3cc(O)cc(O)c3c(=O)c2O)ccc1O",
    "experimentalTarget": "NA of A/chicken/FPV/Rostock/1934 (H7N1) (Influenza A virus)",
    "reportedMeasurement": 68.2
  }
]

Now examine the next entry.
CCOC(=O)C1=C[C@@H](OC(CC)CC)[C@H](NC(C)=O)[C@@H](N)C1 yielded IC50 of 6.1
